# MEASUREMENT_TARGET: UniProtKB P81908
# ASSAY_NAME: Inhibition of equine serum BuChE using butyrylthiocholine iodide as substrate measured for 6 mins by Ellman's method
# MEASUREMENT_SETUP: read-out: IC50
MEASURE_NAME: IC50 (µM)
Number in µM, nothing else.

Provide IC50 value for the following molecule: COc1ccc(C2C(C#N)=C(NC(=O)CN3CCOCC3)Oc3c2c(=O)oc2ccccc32)cc1OC (stereo not given)
34.2

Provide IC50 value for the following molecule: N#CC1=C(NC(=O)CN2CCN(c3ccccc3)CC2)Oc2c(c(=O)oc3ccccc23)C1c1ccc(Cl)cc1 (stereo not given)
89.2

Provide IC50 value for the following molecule: N#CC1=C(NC(=O)CN2CCOCC2)Oc2c(c(=O)oc3ccccc23)C1c1ccc(Cl)cc1 (stereo not given)
91.5

Provide IC50 value for the following molecule: COc1ccc(C2C(C#N)=C(NC(=O)CN3CCOCC3)Oc3c2c(=O)oc2ccccc32)cc1 (stereo not given)
63.8

Provide IC50 value for the following molecule: N#CC1=C(NC(=O)CN2CCOCC2)Oc2c(c(=O)oc3ccccc23)C1c1ccccc1 (stereo not given)
88.4

Provide IC50 value for the following molecule: N#CC1=C(NC(=O)CN2CCN(c3ccccc3)CC2)Oc2c(c(=O)oc3ccccc23)C1c1ccccc1 (stereo not given)
52.3

----------
# MEASUREMENT_TARGET: Cholinesterase (Equus caballus, UniProt P81908)
# Sequence (P81908 whole entry): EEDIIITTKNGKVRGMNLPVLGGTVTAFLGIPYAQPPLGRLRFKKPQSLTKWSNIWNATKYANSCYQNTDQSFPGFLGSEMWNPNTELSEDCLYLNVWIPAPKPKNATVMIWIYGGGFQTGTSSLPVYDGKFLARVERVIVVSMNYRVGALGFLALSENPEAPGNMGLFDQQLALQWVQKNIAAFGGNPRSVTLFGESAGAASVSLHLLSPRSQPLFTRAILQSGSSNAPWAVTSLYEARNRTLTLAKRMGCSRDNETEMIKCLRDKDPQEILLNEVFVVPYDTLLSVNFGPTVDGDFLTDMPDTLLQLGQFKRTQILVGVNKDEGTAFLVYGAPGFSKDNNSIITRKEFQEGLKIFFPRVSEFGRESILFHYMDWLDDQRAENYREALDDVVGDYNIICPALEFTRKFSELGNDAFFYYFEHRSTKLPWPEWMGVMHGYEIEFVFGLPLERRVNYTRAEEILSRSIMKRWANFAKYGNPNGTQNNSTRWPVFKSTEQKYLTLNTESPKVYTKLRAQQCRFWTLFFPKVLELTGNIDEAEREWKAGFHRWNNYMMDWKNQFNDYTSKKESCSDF
# ASSAY_NAME: Inhibition of equine serum BuChE using butyrylthiocholine iodide as substrate measured for 6 mins by Ellman's method
# MEASUREMENT_SETUP: read-out: IC50
Record form. Attribute: IC50. Fill in for each entry.
Number in µM, nothing else.

Provide IC50 value for the following compound: COc1ccc(C2C(C#N)=C(NC(=O)CN3CCN(c4ccccc4)CC3)Oc3c2c(=O)oc2ccccc32)cc1 (centres undefined)
45.7

Provide IC50 value for the following compound: COc1ccc(C2C(C#N)=C(NC(=O)CN3CCN(c4ccccc4)CC3)Oc3c2c(=O)oc2ccccc32)cc1OC (centres undefined)
58.2

----------
# MEASUREMENT_TARGET: Acetylcholinesterase (Electrophorus electricus, UniProt O42275)
# Sequence (O42275 whole entry): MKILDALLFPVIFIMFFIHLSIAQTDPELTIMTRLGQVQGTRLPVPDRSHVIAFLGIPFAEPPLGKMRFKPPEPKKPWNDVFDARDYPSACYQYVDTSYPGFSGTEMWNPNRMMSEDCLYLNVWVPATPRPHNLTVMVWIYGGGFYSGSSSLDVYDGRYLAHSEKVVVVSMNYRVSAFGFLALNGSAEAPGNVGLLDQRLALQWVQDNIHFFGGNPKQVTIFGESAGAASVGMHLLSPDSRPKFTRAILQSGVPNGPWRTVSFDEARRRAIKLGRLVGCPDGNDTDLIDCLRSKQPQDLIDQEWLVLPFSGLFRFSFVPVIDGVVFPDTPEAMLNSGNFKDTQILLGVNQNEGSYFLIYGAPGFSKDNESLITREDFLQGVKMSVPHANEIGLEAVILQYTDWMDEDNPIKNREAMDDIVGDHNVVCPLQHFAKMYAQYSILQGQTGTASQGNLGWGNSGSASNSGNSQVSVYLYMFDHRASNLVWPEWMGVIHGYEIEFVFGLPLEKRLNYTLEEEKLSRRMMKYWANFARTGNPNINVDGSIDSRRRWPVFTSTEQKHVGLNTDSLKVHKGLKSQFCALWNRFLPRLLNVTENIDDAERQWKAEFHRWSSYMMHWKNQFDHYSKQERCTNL
# ASSAY_NAME: Inhibition of electric eel AChE using acetylthiocholine iodide as substrate measured for 6 mins by Ellman's method
# MEASUREMENT_SETUP: read-out: IC50
MEASURE_NAME: IC50

Provide IC50 value for the following compound: N#CC1=C(NC(=O)CN2CCOCC2)Oc2c(c(=O)oc3ccccc23)C1c1ccc(F)cc1 (stereo not drawn)
> 100 µM

Provide IC50 value for the following compound: N#CC1=C(NC(=O)CN2CCOCC2)Oc2c(c(=O)oc3ccccc23)C1c1cccs1 (stereo not drawn)
> 100 µM

Provide IC50 value for the following compound: N#CC1=C(NC(=O)CN2CCOCC2)Oc2c(c(=O)oc3ccccc23)C1c1ccc([N+](=O)[O-])cc1 (stereo not drawn)
> 100 µM
